So I've got a bunch of sequences here, and I need their log2 fold change of degron read counts values.
- study_system: T1, CRBN, Q96SW2;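 note: pooled lentiviral library of zinc finger degron-EGFP fusions in mCherry-positive Jurkat cells, FACS-sorted after compound exposure, with degron abundance counted by next-generation sequencing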
- T1 chain: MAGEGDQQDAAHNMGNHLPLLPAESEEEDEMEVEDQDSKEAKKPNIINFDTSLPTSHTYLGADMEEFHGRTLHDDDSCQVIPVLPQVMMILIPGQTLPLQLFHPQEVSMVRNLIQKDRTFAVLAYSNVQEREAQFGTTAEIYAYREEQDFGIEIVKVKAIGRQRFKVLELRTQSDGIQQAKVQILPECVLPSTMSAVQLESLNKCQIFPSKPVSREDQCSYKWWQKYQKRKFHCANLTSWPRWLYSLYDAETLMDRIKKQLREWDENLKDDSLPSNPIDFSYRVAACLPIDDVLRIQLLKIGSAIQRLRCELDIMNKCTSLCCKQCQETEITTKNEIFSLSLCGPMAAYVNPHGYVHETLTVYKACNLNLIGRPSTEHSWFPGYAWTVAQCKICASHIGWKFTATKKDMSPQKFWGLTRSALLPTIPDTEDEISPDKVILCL
- assay_remarks: log2 fold change of degron read counts, EGFP-low vs EGFP+ sorted cells (limma voom), compound-induced degradation; higher = more compound-induced degradation of the degron-EGFP fusion; degrons are variants of IKZF1/3 zinc finger 2; compound dose not given here
- settings: Jurkat; 18 h; compound: thalidomide
Over roughly 8,300 sequences, “log2 fold change of degron read counts, EGFP-low vs EGFP+ sorted cells (limma voom), compound-induced degradation” has its median near -1.1; the highest 2% begin near 3.2. The sample as a whole holds a higher share of the highest values than the screen did.

Provide log2 fold change of degron read counts for all items below, preserving their order.
1. FDCPVCGAEFTQKGNLLRHIKL [46F_47D_49P_50V_52G_53A_54E_55F_67L_, Q9UKT9]
2. FGCEICGAIFTQKGNLLRHIKL [46F_47G_49E_50I_52G_53A_54I_55F_67L_, Q9UKT9]
3. FCCDICGAFFTQKGNLLRHIKL [46F_47C_49D_50I_52G_53A_54F_55F_67L_, Q9UKT9]

[0.131, 0.804, -2.26]

Provide log2 fold change of degron read counts for all items below, preserving their order.
1. FICEICGAIFTQKGNLLRHIKL [46F_47I_49E_50I_52G_53A_54I_55F_67L_, Q9UKT9]
2. FFCEICGAIFTQKGNLLRHIKL [46F_47F_49E_50I_52G_53A_54I_55F_67L_, Q9UKT9]
3. FSCEICGAIFTQKGNLLRHIKL [46F_47S_49E_50I_52G_53A_54I_55F_67L_, Q9UKT9]
4. FWCEICGAIFTQKGNLLRHIKL [46F_47W_49E_50I_52G_53A_54I_55F_67L_, Q9UKT9]

1: 1.71; 2: 0.938; 3: 0.91; 4: 0.519
